- Test system: NCI-H322M lung
- Method Notes: NCI-60 one-dose screen, 48 h (100 = growth as untreated, 0 = no growth, -100 = all killed)
- Cond: 10 µM unless noted
- Procedure: Growth inhibition of the NCI-H322M human Non-Small Cell Lung tumor cell line is measured as a screen for anti-cancer activity. Cells are grown in 96 well plates and exposed to the test compound for 48 hours. Compounds are tested at a single concentration, which is 10^-5 M for most compounds. The reported endpoint is percent growth (GI% or GIPRCNT), where numbers from 0 - 100% represent growth inhibition, and numbers from -100% - 0 represent cell death. […]
The panel holds about 83,000 compounds, 20% with a hit somewhere; the sample as a whole holds those more often.
Reported Metric: growth (%)
# output: bare number, implied unit %

Compound	growth / %
Cc1ccc(-c2csc(/N=C3\C(=O)Nc4ccccc43)n2)cc1	47.1
CCCCCCCCCCCCCCCC(=O)OC[C@@]1(O)C[C@@]23CC[C@@H]4C(C)(C)CCC[C@@]4(C)[C@@H]2CC[C@H]1C3	114
COc1ccc2c(c1)OC13Oc4cc(OC)ccc4C=C1CCCC3=C2	80.8
CSc1nnc2c(=O)n(C)c(=O)n(C)c2n1	88.9
COc1ccc(-c2nc(N=Nc3c(O)[nH]c4ccccc34)nc(N3CCOCC3)c2C#N)cc1	77.1

State the recorded growth for this entry: `COc1cc(Nc2cc(O)c3c(=O)cc(-c4ccccc4)oc3c2)cc(OC)c1` 44.1

Do the same for `O=C(NCCc1ccccn1)OCc1nc2nc(Cl)nc(N3CCOCC3)c2[nH]1` please 43.9

Repeat for the following compound: COc1cc(C2NC(c3cc(OC)c(OC)c(OC)c3)C(C#N)(C#N)C2(C#N)C#N)cc(OC)c1OC (stereo not drawn) 100

Same again, this time with CCOC(=O)C1CC(=O)c2cc(OC)c(OC)cc2C1 (stereo not drawn) 123

And then `COc1cc(/C=C/C(=O)c2ccc(Nc3ncnc4ccccc34)cc2)cc(OC)c1` , what is it? 76

Repeat for the following compound: `CC(=O)c1c(C)[nH]c(-c2nc3ccc(N4CCN(C)CC4)cc3[nH]2)c1-c1ccccc1` 41.6

// next record `C=C1C(=O)O[C@H]2[C@H]1CC/C(CNC(=O)/C=C/c1ccc(Br)cc1)=C\CC[C@@]1(C)O[C@@H]21` 39.6

Repeat for the following compound: `COc1ccc(Cn2nc3c(c2-c2cc(OC)c(OC)c(OC)c2)-c2oncc2CC3)cc1` 99

Please answer likewise for `COc1ccc(-c2nc(N/N=C/c3cccc(O)c3)nc(N3CCOCC3)c2C#N)cc1` 95

# iterate: Clc1ccc(N2N=C(c3cccc(Nc4ccncc4)c3)CC2c2ccc(Br)cc2)cc1 (stereo not drawn) 66.2

Request: `CC1(C)CCCN1CCCN1c2ccccc2Sc2ccc(Cl)cc21` 74.1

Same thing, different compound: `C=C(C)[C@@H]1CC[C@]2(C(=O)O)CC[C@]3(C)[C@H](CC[C@@H]4[C@@]5(C)C[C@@H](CC#Cc6ccc(Br)cc6)C(=O)C(C)(C)[C@@H]5CC[C@]43C)[C@@H]12` 65.7

Check CC(=O)N1c2ccccc2NC2=C(C(=O)N(Cc3ccccc3)C2(C)C)C1c1ccco1 (stereo not drawn) too. 44.6

Can you handle `COc1cccc(CCC(=O)c2cc3c(N)c(C(=O)Nc4cccc(Cl)c4C)sc3nc2C)c1` next? 43.6

Reference source for all entries: PubChem BioAssay (NCI)
